Ref: patent US20190367592A1

target: T1, recombinant human Tau monomer, 2N4R isoform (amino acids 2-441) (human, UniProt P10636-8 2-441); assay: SPR screen, hIgG captured, Tau monomer analyte
T1 construct: range 2-441; N-terminal His-tag removed with TEV protease; also called monomeric Tau
T1 sequence (P10636 other isoform, or with tags, fused parts or gaps limits assumed): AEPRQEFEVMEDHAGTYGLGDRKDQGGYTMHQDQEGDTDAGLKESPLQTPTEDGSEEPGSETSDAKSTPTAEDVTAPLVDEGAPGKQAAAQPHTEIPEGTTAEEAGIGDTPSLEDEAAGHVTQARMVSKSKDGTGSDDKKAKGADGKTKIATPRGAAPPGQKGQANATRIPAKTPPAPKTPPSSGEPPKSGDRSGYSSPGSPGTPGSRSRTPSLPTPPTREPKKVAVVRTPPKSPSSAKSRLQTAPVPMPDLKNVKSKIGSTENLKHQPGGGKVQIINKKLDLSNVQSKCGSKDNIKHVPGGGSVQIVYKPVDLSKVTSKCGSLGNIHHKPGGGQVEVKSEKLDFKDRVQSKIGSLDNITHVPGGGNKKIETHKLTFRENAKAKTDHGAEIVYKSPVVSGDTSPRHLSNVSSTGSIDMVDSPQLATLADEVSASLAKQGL
quantity-measured: Kd

binder	quantity-measured	result-value
hu125B11 HC2 + hu113F5-F7 LC2 (antibody, V domains shown) VH: EVQLVESGGGLVQPGGSLRLSCAASRFIFSNYWMNWVRQAPGKGLEWVAQIRLKSDNYATHYAESVKGRFTISRDNSKNTVYLQMNSLRAEDTAVYYCTGGTTYWGQGTLVTVSS VL: DIQMTQSPSSLSASVGDRVTITCKASQNVGTAVAWYQQKPGKAPKLLIYSASRRFSGVPSRFSGSGSGTDFTLTISSLQPEDFATYFCQQFSTYPYTFGQGTKVEIK	Kd	0.068 µM
hu125B11.v26 (HC4+LC2) (antibody, IgG1, V domains shown, also called hu125B11 HC4 + 125B11 LC2) VH: EVQLVESGGGLVQPGGSLRLSCAASRFIFSNYWMNWVRQAPGKGLEWVAQIRLKSDNYATHYAESVKGRFTISRDNSKNTLYLQMNSLRAEDTAVYYCTGGTTYWGQGTLVTVSS VL: DIQMTQSPSSLSASVGDRVTITCKASQNVGTAVAWYQQKPGKAPKLLIYSASIRYTGVPSRFSGSGSGTDFTLTISSLQPEDFATYFCQQFRTYPYTFGQGTKVEIK	Kd	0.014 µM
hu125B11 HC3 + hu113F5-F7 LC3 (antibody, V domains shown) VH: EVQLVESGGGLVQPGGSLRLSCAASRFIFSNYWMNWVRQAPGKGLEWVAQIRLKSDNYATHYAESVKGRFTISRDDSKNTLYLQMNSLRAEDTAVYYCTGGTTYWGQGTLVTVSS VL: DIQMTQSPSSLSASVGDRVTITCKASQNVGTAVAWYQQKPGKSPKLLIYSASRRFSGVPSRFSGSGSGTDFTLTISSLQPEDFATYYCQQFSTYPYTFGQGTKVEIK	Kd	0.054 µM
